System: SK-MEL-5 melanoma
Experiment: NCI-60 one-dose screen, 48 h (100 = growth as untreated, 0 = no growth, -100 = all killed)
Conditions: 10 µM
This is part of a sample that, as a whole, favours compounds with a hit. Of some 83,000 tested, about 20% had one in any assay.
Readout Type: growth (%)

>  <Compound Smiles>
CCCCCCCCCCCCCCCCCN

>  <Readout Type>
growth

>  <Uom>
%

>  <Reported Value>
103

$$$$
>  <Compound Smiles>
COc1cc(C(C)(C)C)cc(OC)c1C(O)(c1c(OC)cc(C(C)(C)C)cc1OC)c1c(OC)cc(C(C)(C)C)cc1OC

>  <Readout Type>
growth

>  <Uom>
%

>  <Reported Value>
-93.7

$$$$
>  <Compound Smiles>
CN(C)CCC(=O)c1c[nH]c2ccccc12

>  <Readout Type>
growth

>  <Uom>
%

>  <Reported Value>
113

$$$$
>  <Compound Smiles>
CN1CCN(c2ccc3nc(-c4ccc5nc(-c6ccc(O)cc6)[nH]c5c4)[nH]c3c2)CC1

>  <Readout Type>
growth

>  <Uom>
%

>  <Reported Value>
-19.3

$$$$

----------
System: A549/ATCC NSCLC
Assay: NCI-60 one-dose screen, 48 h (100 = growth as untreated, 0 = no growth, -100 = all killed)
Details: 10 µM
About 83,000 compounds went through this panel and 20% of them were active in at least one assay; those are over-represented in the sample as a whole. Starred links: 1 amine or outer side, 2 acyl side, 3 side chain; linkers in the order of their positions; H or OH if unused. Positions of bridges follow the written chain, without caps; N, C: chain ends. Non-standard residues stand in square brackets, D forms with d. Residues, ends and D or L forms follow the SMILES beside them. Chains are numbered I, II in the order given. Actinocin(9to1) = Cc1c2oc3c(C)ccc(C(=O)[*:1])c3nc-2c(C(=O)[*:2])c(N)c1=O; aThr = C[C@H](O)[C@H](N)C(=O)O; NMeV = CN[C@H](C(=O)O)C(C)C; Sar = CNCC(=O)O
# key: entry, value: growth

>  <Compound>
CN1CCN(c2ccc3nc(-c4ccc5nc(-c6ccc(O)cc6)[nH]c5c4)[nH]c3c2)CC1

>  <growth / %>
62.1

$$$$
>  <Compound>
BrC/C=C/C[P+](c1ccccc1)(c1ccccc1)c1ccccc1

>  <growth / %>
44

$$$$
>  <Compound>
S=c1[nH]nc(Cc2ccccc2)c(=S)[nH]1

>  <growth / %>
94.7

$$$$
>  <Compound>
O=c1[nH]cc(F)c(=O)[nH]1

>  <growth / %>
-11.5

$$$$
>  <Compound>
N#C/C(=C1C=C/C(=N\O)C(Cl)=C\1)c1ccccc1

>  <growth / %>
31.2

$$$$
>  <Compound>
Nc1ccc2cc(Br)c3ccccc3c2c1

>  <growth / %>
63

$$$$
>  <Compound>
CCCCCCCCCCCCCCCCCN

>  <growth / %>
105

$$$$
>  <Compound>
COc1cc(C(C)(C)C)cc(OC)c1C(O)(c1c(OC)cc(C(C)(C)C)cc1OC)c1c(OC)cc(C(C)(C)C)cc1OC

>  <growth / %>
-54.4

$$$$
>  <Compound>
CSc1ccc2c(c1)C(N1CCN(C)CC1)Cc1ccccc1S2 (configuration not stated)

>  <growth / %>
52.7

$$$$
>  <Compound>
Cc1cnc(/C=N\NC(N)=S)c2cccc(N)c12

>  <growth / %>
11.6

$$$$
>  <Compound>
Cc1c2oc3c(C)ccc(C(=O)N[C@@H]4C(=O)N[C@H](C(C)C)C(=O)N5CCC[C@H]5C(=O)N(C)CC(=O)N(C)[C@@H](C(C)C)C(=O)O[C@H]4C)c3nc-2c(C(=O)N[C@@H]2C(=O)N[C@H](C(C)C)C(=O)N3CCC[C@H]3C(=O)N(C)CC(=O)N(C)[C@@H](C(C)C)C(=O)O[C@H]2C)c(N)c1=O (I: [aThr][dV]P[Sar][NMeV] / II: [aThr][dV]P[Sar][NMeV]; ester I:1-I:C, II:1-II:C; linker I:N-II:N via Actinocin(9to1))

>  <growth / %>
-38.9

$$$$
>  <Compound>
CN(C)CCC(=O)c1c[nH]c2ccccc12

>  <growth / %>
110

$$$$
